Target: T1, sortilin protein with a C-terminal 6×His-tag (Homo sapiens (Human), UniProt Q99523 78-755, directly conjugated with d2 in assay format #3 (site not stated); unlabeled and detected with d2-labeled 1C12 in assay format #10)
T1 construct: Soluble sortilin of the HTRF assays; also called sortilin-d2; Tb-conjugated sortilin protein
T1 sequence: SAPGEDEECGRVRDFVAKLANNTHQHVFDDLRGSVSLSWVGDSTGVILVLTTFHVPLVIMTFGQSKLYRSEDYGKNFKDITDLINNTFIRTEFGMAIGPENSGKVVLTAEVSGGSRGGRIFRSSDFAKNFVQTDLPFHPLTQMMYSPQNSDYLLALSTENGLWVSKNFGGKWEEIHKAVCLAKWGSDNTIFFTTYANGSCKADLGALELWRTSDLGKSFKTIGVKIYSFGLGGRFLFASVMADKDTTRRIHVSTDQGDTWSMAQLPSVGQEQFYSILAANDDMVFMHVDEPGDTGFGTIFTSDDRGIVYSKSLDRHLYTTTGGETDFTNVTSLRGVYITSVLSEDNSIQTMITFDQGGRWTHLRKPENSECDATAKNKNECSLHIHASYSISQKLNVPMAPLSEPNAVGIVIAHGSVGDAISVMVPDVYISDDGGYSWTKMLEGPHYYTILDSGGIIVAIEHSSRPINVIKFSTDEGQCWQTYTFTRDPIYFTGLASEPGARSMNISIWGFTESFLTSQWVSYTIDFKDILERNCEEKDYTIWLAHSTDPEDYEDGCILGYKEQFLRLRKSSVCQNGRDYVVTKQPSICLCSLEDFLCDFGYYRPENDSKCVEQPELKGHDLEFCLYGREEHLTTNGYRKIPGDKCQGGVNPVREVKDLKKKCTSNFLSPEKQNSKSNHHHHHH
Assay: HTRF, assay format #3: sortilin-d2 at 9 nM, SA-Tb at 0.33 nM; assay format #3: directly d2 conjugated sortilin, SA-Tb
No end group written: not given here. *: point of attachment. Biotin = O=C1N[C@H]2[C@H](CS[C@H]2CCCCC(=O)*)N1
ASSAY_READOUT: Kd (nM)
Numbers only, in nM.

Lab book: Kd of Biotin-TKCLRREAPRWDAPLRDPALRQLL (Detected through streptavidin-Tb in formats #3, #6 and #10; also called 24 amino acid-sized C-terminal peptide of PGRN; biotinylated peptide) [biotinylated PGRN peptide] noted as 2

All figures here come from patent US10849992B1.
